These measurements were taken from ChEMBL document CHEMBL1127040.

# system under test: Neutrophil elastase (Homo sapiens)
# Sequence (whole entry): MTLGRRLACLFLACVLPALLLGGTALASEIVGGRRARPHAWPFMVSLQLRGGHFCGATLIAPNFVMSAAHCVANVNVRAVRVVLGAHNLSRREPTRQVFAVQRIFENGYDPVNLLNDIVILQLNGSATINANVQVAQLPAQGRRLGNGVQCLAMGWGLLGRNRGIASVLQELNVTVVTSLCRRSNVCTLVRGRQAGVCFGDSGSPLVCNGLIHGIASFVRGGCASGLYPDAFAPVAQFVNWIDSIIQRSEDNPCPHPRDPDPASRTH
# assay explanation: Inhibition of Human Leukocyte Elastase induced lung hemorrhage in hamsters expressed as % inhibition (mean of 4 animals)
# Assay type: functional
# Design: concentration or dose not given beside the values
# conditions used: concentration not given here
Field: inhibition. Provide a value for each of the compounds that follow.
Field note: include the unit after the figure.

Take a look at these entries with their results.
CCC1(CC)C(=O)N(C(=O)NCc2ccccc2)C1Oc1ccc(C(=O)O)cc1 (stereo unspecified)	68%
CCC1(CC)C(=O)N(C(=O)NCc2ccccc2)C1Oc1ccc(SC)cc1 (stereo unspecified)	2%
CCC1(CC)C(=O)N(C(=O)NCc2ccccc2)C1Oc1ccc(NC(=O)CCC(=O)O)cc1 (stereo unspecified)	-3%

Give me inhibition for each of these compounds, listed below.
1. CCC1(CC)C(=O)N(C(=O)NCc2ccccc2)C1n1ccccc1=O (stereo unspecified)
2. CCC1(CC)C(=O)N(C(=O)NCc2ccccc2)C1Oc1ccc(CN(C)C)cc1 (stereo unspecified)
3. CCC1(CC)C(=O)N(C(=O)NCc2ccccc2)C1Oc1cccnc1 (stereo unspecified)

OUTPUT:
1: 29%; 2: 0%; 3: 46%
